Target: Potassium voltage-gated channel subfamily KQT member 1 (Homo sapiens) (UniProt P51787)
Sequence (P51787 whole entry, looked up): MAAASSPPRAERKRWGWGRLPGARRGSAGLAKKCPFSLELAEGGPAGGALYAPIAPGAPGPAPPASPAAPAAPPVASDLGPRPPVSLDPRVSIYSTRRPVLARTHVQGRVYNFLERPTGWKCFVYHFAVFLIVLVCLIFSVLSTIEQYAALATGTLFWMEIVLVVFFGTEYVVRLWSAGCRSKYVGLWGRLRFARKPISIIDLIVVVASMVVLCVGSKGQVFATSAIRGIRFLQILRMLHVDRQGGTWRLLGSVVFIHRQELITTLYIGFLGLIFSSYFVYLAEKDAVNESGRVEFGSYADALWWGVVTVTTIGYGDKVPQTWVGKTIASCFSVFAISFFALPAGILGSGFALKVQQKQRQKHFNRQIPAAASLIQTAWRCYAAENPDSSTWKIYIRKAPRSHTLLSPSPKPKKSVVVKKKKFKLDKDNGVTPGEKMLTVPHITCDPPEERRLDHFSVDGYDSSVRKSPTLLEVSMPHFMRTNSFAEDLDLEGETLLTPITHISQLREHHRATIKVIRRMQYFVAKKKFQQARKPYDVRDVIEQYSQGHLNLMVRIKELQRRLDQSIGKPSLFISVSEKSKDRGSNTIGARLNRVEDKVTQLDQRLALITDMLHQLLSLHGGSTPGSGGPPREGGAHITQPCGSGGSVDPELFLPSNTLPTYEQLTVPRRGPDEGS
Assay: KCNQ1 potassium channel potentiators, confirmation, FluxOR thallium flux, CHO cells, duplicates (AID 493007);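 on outcome: cells depolarized by a potassium plus thallium sulfate stimulus after compound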
Conditions: KCNQ1 cell line, FluxOR thallium flux fluorescence, at 10 µM, % of reference activator effect, buffer zero
Calls of active or inactive are those of the source.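 How the source made its calls: active means potentiation averaged over duplicate wells exceeding buffer-only control mean by more than 3 SD; inactive means the rest.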
Respond only with the outcome that fits, drawn from True = active, False = inactive

Previously resolved entries follow.
>>> category("CSc1nc(C)c2c(n1)N(c1ccc(C(C)C)cc1)CC2")
"False"
>>> category("COc1cc2c(cc1OC)C(C)N(C(=S)NC(=O)c1ccccc1)CC2 (stereo unspecified)")
"False"

Query: // param item: CC(C)(C)c1ccc(-n2nc(C#N)c(Cl)cc2=O)cc1 ; yields the recorded call
Result: False

Query: What classification did Cc1cc2ccccn2c1C(=S)NC(=O)c1ccccc1 end up with in this test?
Result: True

Query: Please state the recorded outcome for this compound: O=C(NC(=S)N1CCc2ccccc21)c1ccc(Br)o1
Result: True
